- studyTarget: Hs6PGD (Homo sapiens, UniProt P52209)
- Sequence (P52209 whole entry): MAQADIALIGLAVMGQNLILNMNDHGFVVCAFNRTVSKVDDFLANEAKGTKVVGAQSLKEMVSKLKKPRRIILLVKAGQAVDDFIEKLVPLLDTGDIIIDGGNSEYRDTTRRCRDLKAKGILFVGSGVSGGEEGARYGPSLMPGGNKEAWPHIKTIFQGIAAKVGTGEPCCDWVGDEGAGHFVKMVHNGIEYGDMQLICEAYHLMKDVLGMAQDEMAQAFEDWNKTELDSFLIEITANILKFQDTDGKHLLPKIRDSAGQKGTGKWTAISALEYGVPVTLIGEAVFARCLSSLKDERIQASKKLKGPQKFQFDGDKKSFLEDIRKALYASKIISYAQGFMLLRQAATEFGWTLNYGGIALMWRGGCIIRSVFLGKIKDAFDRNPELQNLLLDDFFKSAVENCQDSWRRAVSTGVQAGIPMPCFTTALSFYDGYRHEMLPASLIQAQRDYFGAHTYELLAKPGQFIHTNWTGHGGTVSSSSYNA
- method: Dose-response against recombinant Hs6PGD (NADPH fluorescence)
- runParameters: 25 µM 6PG, 20 µM NADP+, highest concentration 100 µM; read-out: IC50 for recombinant protein Hs6PGD
- Procedure: Dose–response curves of gold(I)-based compounds against Ld6PGD were determined in 96-well plates using a Tecan Infinite M200 plate reader (Tecan, Maennedorf, Switzerland). An amount of 10 mM of each compound was dissolved in 100% DMSO and afterwards diluted in assay buffer to the required concentrations (highest final compound concentration of 100 μM). The DMSO tolerance of the enzymes was determined in advance by incubating the enzymes with up to 6% DMSO and determining their activity. […]
pIC50: −log10 of the molar value.
measure: pIC50

Could you share what pIC50 was measured for "CC[P](CC)(CC)=[Au][S][C@@H]1O[C@H](COC(C)=O)[C@@H](OC(C)=O)[C@H](OC(C)=O)[C@H]1OC(C)=O" , tested on Hs6PGD (Homo sapiens, UniProt P52209)?
< 4.00

====

- studyTarget: Ld6PGD (Leishmania donovani, UniProt Q18L02)
- method: Dose-response of gold(I)-based compounds against recombinant Ld6PGD (NADPH fluorescence)
- Format: biochemical
- runParameters: IC50 against Ld6PGD with 6PG at saturation, enzyme incubated with auranofin and 6PG at saturation
measure: IC50 (µM)
State the answer as a number, implicitly in µM.

Given the entry CC[P](CC)(CC)=[Au][S][C@@H]1O[C@H](COC(C)=O)[C@@H](OC(C)=O)[C@H](OC(C)=O)[C@H]1OC(C)=O [Auranofin] , report its measured IC50.
40.5
